- testTarget: ATP-dependent translocase ABCB1 (Homo sapiens, UniProt P08183)
- Sequence (P08183 whole entry): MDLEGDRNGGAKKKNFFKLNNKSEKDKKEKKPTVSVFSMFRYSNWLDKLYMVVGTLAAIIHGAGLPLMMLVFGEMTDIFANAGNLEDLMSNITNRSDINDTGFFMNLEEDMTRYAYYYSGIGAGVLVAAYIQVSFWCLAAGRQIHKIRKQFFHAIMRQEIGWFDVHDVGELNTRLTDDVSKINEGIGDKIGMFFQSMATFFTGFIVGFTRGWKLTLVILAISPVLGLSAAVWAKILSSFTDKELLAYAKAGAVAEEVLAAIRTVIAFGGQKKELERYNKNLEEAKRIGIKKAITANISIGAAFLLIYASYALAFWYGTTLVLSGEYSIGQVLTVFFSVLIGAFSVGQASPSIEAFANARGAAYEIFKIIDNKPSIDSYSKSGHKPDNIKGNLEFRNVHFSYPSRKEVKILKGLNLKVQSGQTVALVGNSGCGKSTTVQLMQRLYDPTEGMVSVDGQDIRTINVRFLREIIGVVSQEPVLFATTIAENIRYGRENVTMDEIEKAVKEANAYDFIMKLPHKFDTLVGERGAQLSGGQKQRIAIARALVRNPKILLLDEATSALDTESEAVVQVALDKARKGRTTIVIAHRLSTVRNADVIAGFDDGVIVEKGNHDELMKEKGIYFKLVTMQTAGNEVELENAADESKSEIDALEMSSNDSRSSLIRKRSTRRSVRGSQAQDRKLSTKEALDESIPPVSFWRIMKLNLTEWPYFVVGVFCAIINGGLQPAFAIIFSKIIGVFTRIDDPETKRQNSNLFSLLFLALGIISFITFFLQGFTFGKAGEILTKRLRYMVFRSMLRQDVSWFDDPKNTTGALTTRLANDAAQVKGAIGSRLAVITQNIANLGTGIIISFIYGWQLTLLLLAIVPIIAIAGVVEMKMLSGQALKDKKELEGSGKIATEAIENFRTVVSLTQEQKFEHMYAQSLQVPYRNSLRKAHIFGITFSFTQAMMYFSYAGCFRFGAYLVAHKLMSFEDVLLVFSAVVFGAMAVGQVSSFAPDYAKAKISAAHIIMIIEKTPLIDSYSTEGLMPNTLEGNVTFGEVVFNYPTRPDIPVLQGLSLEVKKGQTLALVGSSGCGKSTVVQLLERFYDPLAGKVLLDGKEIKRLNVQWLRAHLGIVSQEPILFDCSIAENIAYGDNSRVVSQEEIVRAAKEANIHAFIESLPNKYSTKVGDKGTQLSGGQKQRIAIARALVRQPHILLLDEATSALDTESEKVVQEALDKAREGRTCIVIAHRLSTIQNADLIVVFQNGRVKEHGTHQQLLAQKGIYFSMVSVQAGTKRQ
- assay: Inhibition of human MDR1 expressed in mouse NIH/3T3 cells assessed as reduction in vinblastine IC50 at 10 uM by MTT assay
- Format: cell-based
- cond: nih3t3, 10 µM
Binary classification by fold change (FC), with 100 as an inclusive lower bound for true (1); all other cases are false (0).

Below, 8 molecules whose answers are already recorded.
molecule	classLabel
CC(=O)O[C@H]1CC[C@](C)(O)[C@]23OC(C)(C)[C@H]([C@H](OC(=O)/C=C/c4ccccc4)[C@H](OC(=O)c4ccccc4)[C@]12C)[C@H]3OC(=O)CCC(=O)OC1CCCCC1O (stereo partly drawn)	true (1)
CC(=O)O[C@H]1CC[C@](C)(OC(=O)CNCC(C)C)[C@]23OC(C)(C)[C@H]([C@H](OC(=O)/C=C/c4ccccc4)[C@H](OC(=O)c4ccccc4)[C@]12C)[C@H]3OC(C)=O	false (0)
CC(=O)O[C@H]1CC[C@](C)(O)[C@]23OC(C)(C)[C@H]([C@H](OC(=O)/C=C/c4ccccc4)[C@H](OC(=O)c4ccccc4)[C@]12C)[C@H]3OC(=O)N(C)C	false (0)
CC(=O)O[C@H]1CC[C@](C)(O)[C@]23OC(C)(C)[C@H]([C@H](OC(=O)/C=C/c4ccccc4)[C@H](OC(=O)c4ccccc4)[C@]12C)[C@H]3OC(=O)c1cccnc1	true (1)
CC(=O)O[C@H]1CC[C@](C)(O)[C@]23OC(C)(C)[C@H]([C@H](OC(=O)/C=C/c4ccccc4)[C@H](OC(=O)c4ccccc4)[C@]12C)[C@H]3OS(C)(=O)=O	true (1)
CC(=O)O[C@H]1CC[C@](C)(O)[C@]23OC(C)(C)[C@H]([C@H](OC(=O)/C=C\c4ccccc4)[C@H](OC(=O)c4ccccc4)[C@]12C)[C@H]3OC(C)=O	false (0)
CC(=O)O[C@H]1CC[C@](C)(O)[C@@]23OC(C)(C)[C@@H](C2=O)[C@H](OC(=O)/C=C/c2ccccc2)[C@H](OC(=O)c2ccccc2)[C@]13C	true (1)
COc1ccc(CCN(C)CCCC(C#N)(c2ccc(OC)c(OC)c2)C(C)C)cc1OC (stereo not drawn)	true (1)

Decide: is the reported value of fold change (FC) for `CC(=O)O[C@H]1CC[C@](C)(O)[C@]23OC(C)(C)[C@H]([C@H](OC(=O)/C=C/c4ccccc4)[C@H](OC(=O)c4ccccc4)[C@]12C)[C@H]3OC(=O)c1ccccc1` equal to or greater than 100? true (1)

Also `CC(=O)O[C@H]1CC[C@](C)(O)[C@]23OC(C)(C)[C@H]([C@H](OC(=O)/C=C\c4ccccc4)[C@H](OC(=O)c4ccccc4)[C@]12C)[C@H]3OC(=O)c1ccccc1` ? false (0)

====

- testTarget: UniProt P08183
- assay: Inhibition of human MDR1 expressed in mouse NIH/3T3 cells assessed as reduction in vinblastine IC50 at 3 uM by MTT assay
- Type: cell-based
- cond: nih3t3, 3 µM
metricName: fold change (FC)
One number for each entry.

Here is how some compounds turned out for fold change (FC).
molecularString	metricName	measuredValue
CC(=O)O[C@H]1CC[C@](C)(O)[C@]23OC(C)(C)[C@H]([C@H](OC(=O)/C=C/c4ccccc4)[C@H](OC(=O)c4ccccc4)[C@]12C)[C@H]3OC(=O)c1cccnc1	fold change (FC)	56
CC(=O)O[C@H]1CC[C@](C)(O)[C@]23OC(C)(C)[C@H]([C@H](OC(=O)/C=C/c4ccccc4)[C@H](OC(=O)c4ccccc4)[C@]12C)[C@H]3OC(=O)CCC(=O)N(C(=O)NC1CCCCC1)C1CCCCC1	fold change (FC)	36.1
CC(=O)O[C@H]1CC[C@](C)(O)[C@]23OC(C)(C)[C@H]([C@H](OC(=O)CCc4ccccc4)[C@H](OC(=O)c4ccccc4)[C@]12C)[C@H]3O	fold change (FC)	23.6
CC(=O)O[C@H]1CC[C@](C)(O)[C@]23OC(C)(C)[C@H]([C@H](OC(=O)/C=C/c4ccccc4)[C@H](OC(=O)c4ccccc4)[C@]12C)[C@H]3OC(=O)c1cnccn1	fold change (FC)	8.8
CCC(=O)O[C@@H]1[C@H]2[C@H](OC(=O)/C=C/c3ccccc3)[C@H](OC(=O)c3ccccc3)[C@]3(C)[C@@H](OC(C)=O)CC[C@](C)(O)[C@@]13OC2(C)C	fold change (FC)	69

Would you mind giving fold change (FC) for every compound in the list below?
1. CC(=O)O[C@H]1CC[C@](C)(O)[C@]23OC(C)(C)[C@H]([C@H](OC(=O)/C=C/c4ccccc4)[C@H](OC(=O)c4ccccc4)[C@]12C)[C@H]3OC(=O)CCC(=O)OCCO
2. CC(=O)O[C@H]1CC[C@](C)(O)[C@]23OC(C)(C)[C@H]([C@H](OC(=O)/C=C\c4ccccc4)[C@H](OC(=O)c4ccccc4)[C@]12C)[C@H]3OC(=O)c1ccccc1
3. CC(=O)O[C@H]1CC[C@](C)(Cl)[C@]23OC(C)(C)[C@H]([C@H](OC(=O)/C=C/c4ccccc4)[C@H](OC(=O)c4ccccc4)[C@]12C)[C@H]3Cl

1. 26.8
2. 30.1
3. 33
